Test system: influenza A/HK/8/68 (H3N2)
assay.remarks: microbe, parasite or virus in culture
Type: cell-based, influenza A virus
experimental.conditions: Influenza A virus, H3N2, Vero; Table 4, controls; cutoff control values compiled through many experiments
Structures can show the parent of a compound that is named as a salt.
outcome.measure: EC50

Here is how some compounds turned out for EC50.
compound	target.under.test	result
NC12CC3CC(CC(C3)C1)C2 [Amantadine, 1-aminoadamantane hydrochloride, reference compound]	influenza A/HK/8/68 (H3N2)	≤ 1 µM
CC(N)C12CC3CC(CC(C3)C1)C2.Cl (stereo not drawn) [Rimantadine, hydrochloride, reference compound]	influenza A/HK/8/68 (H3N2)	≤ 1 µM

Continue with the next compound.
Report measured EC50; entry is CCOC(=O)C1=C[C@@H](OC(CC)CC)[C@H](NC(C)=O)[C@@H](N)C1 [Oseltamivir, reference compound]
≤ 1 µM

----------
Test system: Vero cells
experimental.conditions: Table 3, MDT compounds, No Tox. = no cytotoxicity measured
outcome.measure: Cytotoxicity

Here is how some compounds turned out for Cytotoxicity.
compound	Cytotoxicity
CC12CC3CC4C1CC1(C(=O)O)CC2C(C3)C4(C)C1 [MDT-46, 1,6-dimethyl-4-diamantanecarboxylic acid]	No Tox.
CC(N)C12CC3C4CC5CC3C(C1)C(C5)C4C2 (centres unmarked) [MDT-62, 4-(1-aminoethyl)diamantane]	50 or above μM
NCC12CC3C4CC5CC3C(C1)C(C5)C4C2 [MDT-61, 4-diamantanemethylamine]	50 or above μM
O=NC12CC3CC4C5CC(CC41)CC2C5C3 [MDT-26, 1-nitrosodiamantane]	No Tox.
CC12CC3CC4C1CC1CC2C(N)(C3)C4(C)C1 (centres unmarked) [MDT-43, 1,6-dimethyl-2-aminodiamantane]	10 or above μM

Report measured Cytotoxicity; entry is CC(N)C12CC3CC4C5CC(CC41)CC2C5C3 (centres unmarked) [MDT-57, 1-(1-aminoethyl)diamantane]
50 or above μM

Report measured Cytotoxicity; entry is O=NC12CC3C4CC5CC3C(C1)C(C5)C4C2 [MDT-27, 4-nitrosodiamantane]
No Tox.

Report measured Cytotoxicity; entry is CC12CC3CC4C1CC1(O)CC2C(C3)C4(C)C1 [MDT-45, 1,6-dimethyl-4-hydroxydiamantane]
No Tox.
